TGT: T1, his-tagged B7-H3 (UniProt Q5ZPR3-2 29-245, limits assumed)
T1 construct: also called CD276; not shown: His tag
T1 sequence (looked up): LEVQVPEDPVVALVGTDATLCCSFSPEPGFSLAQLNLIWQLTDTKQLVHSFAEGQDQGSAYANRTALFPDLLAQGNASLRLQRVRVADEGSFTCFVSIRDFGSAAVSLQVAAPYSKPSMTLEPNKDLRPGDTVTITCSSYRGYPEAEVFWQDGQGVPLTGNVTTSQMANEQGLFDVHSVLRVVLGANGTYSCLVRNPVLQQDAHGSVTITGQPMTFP
EXPERIMENT_SUMMARY: SPR, Carterra LSA; binder captured by anti-human Fc, his-tagged B7-H3 injected
PROPERTY_NAME: kon (M⁻¹ s⁻¹)

- 40633p1.2.D1 scFv-Fc (scFv, V domains shown, Tested as scFv-Fc supernatant) VH: EVQLLESGGGLVQPGGSLRLSCAASGFTFDVYGMSWVRQAPGKGLEWVSAINWNGGSTYYADSVKGRFTISRDNSENTLYLQMNSLRAEDTAVYYCAKEKWKHFIYYGMDVWGQGTTVTVSS VL: QSVLTQPASASGTPGQTVSISCSGSSSNIDSNTANWYQQLPGTAPKLLIYSNNQRPSGVPDRFSGSKSDTSASLAISGLQSEDEGDYYCSAWDDNLNGWLFGGGTKLTVL: 392000
- 40633p1.2.E11 scFv-Fc (scFv, V domains shown) VH: EVQLLESGGGLVQPGGSLRLSCAASGFSFSNYDMSWVRQAPGKGLEWVAGIRSGSRTYYADSVKGRFTISRDNSKNTLYLQMNSLRAEDTATYYCGRYFNMDVWGQGTTVTVSS VL: QSVLTQPPSASGTPGQRVTISCSGSTFNIGTNLVHWYQQLPGTAPKLLIYLTDRRPPGVPDRFSGSKSGTSASLAISGLQSEDEANYYCATWDDSLNSFLFGGGTKLTVL: 134000
- 40511p1.2.A12 scFv-Fc (scFv, V domains shown, Tested as scFv-Fc supernatant; also called 40511p1.2.Al2) VH: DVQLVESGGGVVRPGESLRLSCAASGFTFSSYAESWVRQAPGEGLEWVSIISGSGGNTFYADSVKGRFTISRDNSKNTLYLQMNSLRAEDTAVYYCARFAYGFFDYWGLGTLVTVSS VL: EIVLTQSPGTLSVSPGERATLSCRASQTVGSKLAWYQQKPGQPPSLLIYDASTRATGIPDRFSGSGSGTDFTLTISSLQSEDFAVYYCQQYRNWPPLTFGGGTKVEIK: 1.32e+06
- 40633p1.2.G9 scFv-Fc (scFv, V domains shown) VH: EVQLLESGGGLLQPGGSLRLSCAASGFSFSSYGMHWVRQAPGKGLEWVAAINSDGSRIYYADSVEGRFTISRDNSKNTLYLQMNSLRAEDTAVYYCTKYYYHYAMDVWGQGTTVTVSS VL: QSVLTQPPSASGTPGQRVTISCSGSRSDIGATTVNWYQQLPGTAPKLLIYQSHLRPSGVPDRFSGSKSGTSASLAISGLQSEDEADYYCASWDASLNTWVFGGGTKLTVL: 325000
- 40633p1.1.H11 scFv-Fc (scFv, V domains shown, Tested as scFv-Fc supernatant) VH: EVQLLESGGGLVQPGGSLRLSCAASGFTFSSYPMTWVRQAPGKGLEWVADINSGGGTTLYADAVKGRFTISRDNSKNIVYLQMNSLRGEDTAVYYCAKHLDYYSYGMDVWGQGTTVTVSS VL: QSVLTQPPSASGTPGQRVTISCSGVTSKIGSKYVHWYQQLPGTAPKLLIYRNFERPSGVPDRFSGSTSGTSASLAISGLQSEDEADYYCATWEGALNGWVFGGGTKLTVL: 113000
